assayTarget: Acetylcholinesterase (Rattus norvegicus, UniProt P37136)
Sequence (P37136 whole entry): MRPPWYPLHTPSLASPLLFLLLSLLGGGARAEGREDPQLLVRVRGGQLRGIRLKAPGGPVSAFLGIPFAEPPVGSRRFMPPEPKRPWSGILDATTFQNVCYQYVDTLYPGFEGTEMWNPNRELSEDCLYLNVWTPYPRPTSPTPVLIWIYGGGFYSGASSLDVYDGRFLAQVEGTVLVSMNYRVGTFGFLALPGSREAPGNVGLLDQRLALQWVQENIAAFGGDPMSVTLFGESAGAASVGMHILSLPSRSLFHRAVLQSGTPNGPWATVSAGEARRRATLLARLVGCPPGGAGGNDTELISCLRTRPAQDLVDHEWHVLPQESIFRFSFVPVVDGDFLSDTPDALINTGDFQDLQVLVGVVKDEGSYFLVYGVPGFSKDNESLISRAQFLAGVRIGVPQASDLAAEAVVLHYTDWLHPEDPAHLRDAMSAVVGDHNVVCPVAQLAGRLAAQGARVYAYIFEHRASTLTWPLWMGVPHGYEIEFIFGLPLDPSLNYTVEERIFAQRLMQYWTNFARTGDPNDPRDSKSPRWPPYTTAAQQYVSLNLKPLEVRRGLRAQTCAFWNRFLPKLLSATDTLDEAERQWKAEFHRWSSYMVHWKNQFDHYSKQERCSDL
measurementDescription: Compound was tested for its ability to inhibit the action of acetylcholinesterase isolated from rat brain cortex
pIC50 values for the molecules below.
Please express pIC50 as -log10 of the molar concentration.

{"columns": ["smilesEntry", "assayTarget", "recordedMeasurement"],
 "data": [
  ["C/C=C1\\CCc2[nH]c(=O)ccc2[C@]1(C)N", "Acetylcholinesterase (Rattus norvegicus, UniProt P37136)", 3.47]
]}

Here is another molecule to look at.
Task: Report pIC50, nothing else, for this molecule: C/C=C1\C2CCC[C@]1(N)c1ccc(O)nc1C2
Result: 5.01

These entries and their values trace back to ChEMBL document CHEMBL1125225.
